Measured values drawn from the Human Domainome abundance scans (Beltran et al. 2025) for this set.

The following variants are listed with their measured abundance fitness values.
B1: Ankyrin-1, residues 1405 to 1484; numbered along this chain, P16157 (parent)
chain: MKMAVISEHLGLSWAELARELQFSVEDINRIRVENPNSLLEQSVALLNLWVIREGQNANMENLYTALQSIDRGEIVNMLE

# Variants of: B1
# EXPERIMENT NOTES: abundance fitness (aPCA) (normalised: wild type 0, dead -1); higher = more abundant; growth selection in yeast, the domain comes from the species named
# EXPERIMENTAL CONTEXT: Homo sapiens

# MUTANT LABEL, abundance fitness
records = [
    ("N29T", -0.005),
    ("S43T", -0.807),
    ("Y64K", -0.473),
    ("N48K", 0.098),
    ("V76I", 0.079),
    ("A58R", -0.049),
    ("V44G", 0.046),
    ("E26L", -0.153),
    ("M78Q", -0.061),
    ("L39G", -0.423),
    ("N35S", -0.017),
]
